Test system: HBV (2.2.15 cells)
Assay: Inhibition of release of HBV DNA into the extracellular environment, 2.2.15 cells (dot blot)
Format: cell-based, hepatitis B virus
Settings: Hepatitis B virus
Procedure: The current state of, the art for the detection of HBV in tissue culture is the HepG2 or 2.2.15 cell line assay (Korba & Milman, Antiviral Research 15: 217-228 1991). This assay uses HepG2 cells (a human hepatoblastoma cell line) stably transfected with DNA from a clone containing two tandemly arranged copies of the HBV genome. […] The samples were evaluated to determine the effective concentration of the inhibitors that inhibited the release of HBV DNA by 50%. […]
pEC50: −log10 of the molar value.

structure.smiles.string | pEC50
Nc1ccn([C@@H]2CS[C@H](CO)O2)c(=O)n1 | 7.30
Nc1ccn([C@H]2CC[C@@H](CO)O2)c(=O)n1 | 5.22
